Just for reference, PubChem BioAssay AID1159580 is where these values come from.

- assay procedure: chemical genetic growth profiling, strain panel (AID 1159580);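 also: tested at 20 µM; growth read once vehicle control cultures reached saturation at 30 °C; 1 = growth at the plate median or of vehicle wells; lower values mean less growth of the strain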
- run conditions: S. cerevisiae deletion strains, growth OD, locus YDL134C, strain PPH21, hits give low values
The campaign covered roughly 5,500 compounds. About 2,000 (36%) were called active. Inconclusive results (about 18%) are left out. The list shows a part of the results. Where a SMILES comes first, the peptide text is derived from it. Bridges are numbered along the chain shown (N, C = ends). [ ]: non-standard residue; d: D form. The star is where a group is joined. Octanoyl(6-Me) = CCC(C)CCCCC(=O)*; Dab = NCC[CH](N)C(=O)O

molecule	normalized growth
CCC(=O)Nc1cc(OC)cc(OC)c1	1
CCC(C)CCCCC(=O)NC(CCN)C(=O)NC(C(=O)NC(CCN)C(=O)NC1CCNC(=O)C(C(C)O)NC(=O)C(CCN)NC(=O)C(CCN)NC(=O)C(CC(C)C)NC(=O)C(Cc2ccccc2)NC(=O)C(CCN)NC1=O)C(C)O (configuration not stated) ({Octanoyl(6-Me)}-[Dab]T[Dab][Dab][Dab]FL[Dab][Dab]T; lactam 4-C; configuration not given here)	0.997
COc1ccc(C(=O)c2ccc(O)cc2)c(O)c1O	1.01
NS(=O)(=O)c1ccc(-n2ncc3ccccc3c2=O)cc1	1.02
CC1=NN(c2ccccc2)C(=O)C1	0.971
CCOc1ccc(C(=O)c2cc(O)c(OC)c(OC)c2O)cc1	1.01
CC(C)(C)C1=NN(c2ccccc2)C(=O)C1	0.975
Cc1ccc(OCc2nnc(SCC(=O)c3ccc(F)cc3)n2-c2ccccc2)c2c1CCC2	0.982
COC(=O)CSCCc1nc(-c2ccc([N+](=O)[O-])cc2)cs1	0.976
COc1cc2cc3c4cc(OC)c(OC)cc4cc[n+]3c(C)c2cc1OC	0.982
CCN(CC)CCNC(=O)c1cc(Cl)c(N)cc1OC	1.01
CO[C@H]1C[C@H](O[C@H]2[C@H](C)[C@@H](OC3O[C@H](C)C[C@H](N(C)C)[C@H]3OC(C)=O)[C@@H](C)C[C@]3(CO3)C(=O)[C@H](C)[C@@H](OC(C)=O)[C@@H](C)[C@@H](C)OC(=O)[C@@H]2C)O[C@@H](C)[C@@H]1OC(C)=O (some centres not stated)	1
CO[C@@]1(NC(=O)Cc2cccs2)C(=O)N2C(C(=O)O)=C(COC(N)=O)CS[C@@H]21	1
O=C(CCBr)N1CCN(C(=O)CCBr)CC1	1.01
CN1C(=O)CCS(=O)(=O)C1c1ccc(Cl)cc1 (configuration not stated)	1.01
COc1cc2c(cc1OC)-c1c(oc3c4c(ccc3c1=O)OC(C(C)C)C4)CO2 (configuration not stated)	0.983
NC1CC1c1ccccc1 (configuration not stated)	1.02

###

- assay procedure: chemical genetic growth profiling, strain panel (AID 1159580)
- run conditions: S. cerevisiae deletion strains, growth OD, locus YOR231W, strain MKK1, hits give low values
Out of some 5,500 compounds screened, about 2,000 (36%) were called active. Inconclusive results (about 18%) are left out. The list shows a part of the results.
So basically, if normalized growth comes in under 1 it's yes, and if it's 1 or more it's no.

smiles	group
N#C/C(=N/Nc1cccc(C(F)(F)F)c1)C(=O)c1csc(-c2cccnc2)n1	yes
O=C(NNC(=S)Nc1ccc(Cl)cc1)c1ncc(C(F)(F)F)cc1Cl	yes
CC(C)(C)c1ccc(C(=O)NNC(=S)Nc2ccc(Cl)cc2)cc1	yes
CC(=O)c1ccccc1C(=O)c1ccc(C(C)(C)C)cc1	yes
Cc1c(NC(=O)c2cccnc2)c(=O)n(-c2ccccc2)n1C	no
OCc1c[nH]c2ccccc12	no

###

- assay procedure: chemical genetic growth profiling, strain panel (AID 1159580);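 also: tested at 20 µM; growth read once vehicle control cultures reached saturation at 30 °C; 1 = growth at the plate median or of vehicle wells; lower values mean less growth of the strain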
- run conditions: S. cerevisiae deletion strains, growth OD, locus YEL003W, strain gim4
Among all 5,500 compounds or so, about 2,000 (36%) were called active. Inconclusive results (about 18%) are left out. No stated cut-off is given here; in the data, active means normalized growth mostly below about 0.91 (no sharp cut-off); inconclusive means no clear call, values can overlap the other calls; inactive means mostly above about 0.92. The list shows a part of the results. Where a SMILES comes first, the peptide text is derived from it. [ ]: non-standard residue; d: D form. Orn = NCCC[CH](N)C(=O)O
Outcomes: 1.0 = active, 0.0 = inactive

compound	group
COc1cc2c(cc1O)CCNC2C (centres undefined)	0.0
NC[C@H]1O[C@H](O[C@H]2C(O[C@@H]3O[C@H](CO)[C@@H](O)[C@H]3O)[C@@H](O)[C@H](N)C[C@@H]2N)[C@H](N)[C@@H](O)[C@@H]1O (some centres undefined)	0.0
CC(=O)Oc1cc2c(c(C)c1OC(C)=O)CC1OC13C2(C)CCC1(C)C2CC(C)(C(=O)O)CCC2(C)CCC13C (centres undefined)	0.0
CC(=O)NO	0.0
COc1cccc(OC)c1C(=O)N[C@@H]1C(=O)N2[C@@H]1SC(C)(C)[C@@H]2C(=O)O	0.0
CC[C@@H](CO)NC(=O)[C@@H]1C=C2c3cccc4[nH]cc(c34)C[C@H]2N(C)C1	0.0
CC(C)CC1NC(=O)C(CCCN)NC(=O)C(C(C)C)NC(=O)C2CCCN2C(=O)C(Cc2ccccc2)NC(=O)C(CC(C)C)NC(=O)C(CCCN)NC(=O)C(C(C)C)NC(=O)C2CCCN2C(=O)C(Cc2ccccc2)NC1=O (centres undefined) (cyclo(FPV[Orn]LFPV[Orn]L); configuration not given here)	0.0
CC1(C)S[C@@H]2[C@H](NC(=O)Cc3ccccc3)C(=O)N2[C@H]1C(=O)O	0.0
CNS(=O)(=O)Cc1ccc2[nH]cc(CCN(C)C)c2c1	0.0
CC1=C(O)C(=O)C=C2C1=CC=C1[C@@]2(C)CC[C@@]2(C)[C@@H]3C[C@](C)(C(=O)O)CC[C@]3(C)CC[C@]12C	1.0
Cc1onc(-c2ccccc2)c1C(=O)NC1C(=O)N2[C@@H]1SC(C)(C)[C@@H]2C(=O)O (some centres undefined)	0.0
CCOc1cccc(C(=O)c2ccc(O)c(O)c2O)c1	1.0
Cc1cc(=O)n(-c2ccccc2)n1C	0.0
Cc1ccc(N(CC2=NCCN2)c2cccc(O)c2)cc1	0.0

###

# normalized growth listing for each entry below
- assay procedure: chemical genetic growth profiling, strain panel (AID 1159580);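 also: tested at 20 µM; growth read once vehicle control cultures reached saturation at 30 °C; 1 = growth at the plate median or of vehicle wells; lower values mean less growth of the strain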
- run conditions: S. cerevisiae deletion strains, growth OD, locus YDR162C, strain NBP2, hits give low values
The campaign covered roughly 5,500 compounds. About 2,000 (36%) were called active. About 18% were inconclusive and are not listed. The list shows a part of the results. Where a SMILES comes first, the peptide text is derived from it. Bridges are numbered along the chain shown (N, C = ends). [ ]: non-standard residue; d: D form. The star is where a group is joined. Octanoyl(6-Me) = CCC(C)CCCCC(=O)*; Dab = NCC[CH](N)C(=O)O
measurement name: normalized growth

compound	measurement name	reading
CCC(C)CCCCC(=O)NC(CCN)C(=O)NC(C(=O)NC(CCN)C(=O)NC1CCNC(=O)C(C(C)O)NC(=O)C(CCN)NC(=O)C(CCN)NC(=O)C(CC(C)C)NC(=O)C(Cc2ccccc2)NC(=O)C(CCN)NC1=O)C(C)O (stereo not given) ({Octanoyl(6-Me)}-[Dab]T[Dab][Dab][Dab]FL[Dab][Dab]T; lactam 4-C; configuration not given here)	normalized growth	0.99
COc1ccc2c(c1OC)OC[C@@H](c1ccc(OC)c(OC)c1OC)C2	normalized growth	1
Cc1c(NC(=O)c2cccnc2)c(=O)n(-c2ccccc2)n1C	normalized growth	1
CCOc1ccc(NC(C)=O)cc1	normalized growth	1.01
CN1CCN(CC(=O)N2c3ccccc3C(=O)Nc3cccnc32)CC1	normalized growth	1.01
CC(=O)Oc1cc2c(c(C)c1OC(C)=O)CC1OC13C2(C)CCC1(C)C2CC(C)(C(=O)O)CCC2(C)CCC13C (stereo not given)	normalized growth	1
CC[C@@H](CO)NC(=O)[C@@H]1C=C2c3cccc4[nH]cc(c34)C[C@H]2N(C)C1	normalized growth	1.02
c1ccc([C@H]2CN3CCSC3=N2)cc1	normalized growth	0.999
O=C(O)c1cc(=O)c2c(Cl)cc(Cl)cc2[nH]1	normalized growth	1.02
O=C(O)c1cc(=O)c2cccc(O)c2[nH]1	normalized growth	1

###

Listing of recorded normalized growth by entry.
- assay procedure: chemical genetic growth profiling, strain panel (AID 1159580);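 also: tested at 20 µM; growth read once vehicle control cultures reached saturation at 30 °C; 1 = growth at the plate median or of vehicle wells; lower values mean less growth of the strain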
- run conditions: S. cerevisiae deletion strains, growth OD, locus YDR162C, strain NBP2, hits give low values
Hit rate of the full screen: of about 5,500 compounds, about 2,000 (36%) were called active. Inconclusive results (about 18%) are left out. The list shows a part of the results. *1 amine or outer side, *2 acyl side, *3 side chain or, on linkers, in order; H or OH if unused. Where a SMILES comes first, the peptide text is derived from it. Bridges are numbered along the chain shown (N, C = ends). [ ]: non-standard residue; d: D form. The star is where a group is joined. ξ: configuration not given here. ΔAla(E,3-NHCONH2) = NC(=O)N/C=C(/N)C(=O)O; X2 = NC1=NCCC(C(N[*:1])C(=O)[*:2])N1; ξβ3hOrn = NCCCC(N)CC(=O)*; Dap = NC[CH](N)C(=O)O

molecule	normalized growth
O=c1c(O)c(-c2ccc(O)c(O)c2)oc2cc(O)ccc12	0.831
CCNc1nc(Cl)nc(NCC)n1	0.97
CN1CCN(CCC=C2c3ccccc3Sc3ccc(S(=O)(=O)N(C)C)cc32)CC1	1
C[C@]12CCC(=O)C=C1CCC1C2C(=O)C[C@@]2(C)C1CC[C@]2(O)C(=O)CO (stereo partly drawn)	0.984
CC1(C)C=Cc2cc3ccc(=O)oc3cc2O1	0.976
O=C(CCc1ccc(O)cc1)c1c(O)cc(O)cc1O[C@@H]1O[C@H](CO)[C@@H](O)[C@H](O)[C@H]1O	1.06
COc1cnc(NS(=O)(=O)c2ccc(N)cc2)nc1	0.992
O=C(O)[C@H](O)[C@@](O)(Cc1ccc(O)cc1)C(=O)O	1.06
CC(NCCC(c1ccccc1)c1ccccc1)c1ccccc1 (stereo not drawn)	0.936
CC(=O)[O][Hg][c]1ccccc1	0.0545
COc1ccc2c(=O)ccoc2c1	1.02
Cc1cc(C(C)(C)C)cc(C)c1CC1=NCCN1	1.01
NCCCC(N)CC(=O)NCC1NC(=O)C(CO)NC(=O)C(N)CNC(=O)C(C2CCN=C(N)N2)NC(=O)/C(=C\NC(N)=O)NC1=O (stereo not drawn) (H-[Dap]S[Dap](ξβ3hOrn)[ΔAla(E,3-NHCONH2)][X2]; lactam 1-C; configuration not given here)	1.01
CN1CCN(CCCN2c3ccccc3Sc3ccc(C(F)(F)F)cc32)CC1	0.0537
NC(N)=NC(N)=Nc1ccccc1	1.01
CC[C@H]1CN2CCc3cc(OC)c(OC)cc3C2C[C@@H]1CC1NCCc2cc(OC)c(OC)cc21 (stereo partly drawn)	1.03
Cc1onc(-c2c(Cl)cccc2Cl)c1C(=O)N[C@@H]1C(=O)N2[C@@H]1SC(C)(C)[C@@H]2C(=O)O	1.02
COc1cc2c(cc1OC)[C@@]13CCN4CC5=CCOC6CC(=O)N2C1[C@H]6[C@H]5C[C@H]43 (stereo partly drawn)	1.02
